The measured values listed here are drawn from patent US5134140A.

- measured_target: serotonin 5-HT1A receptor (Rattus norvegicus)
- Construct: following the procedure of Hall et al., J. Neurochem; 44, 1685 (1985); from tissue
- test_method_notes: 5-HT1A binding, displacement of [3H] 8-OHDPAT
Reported inhibition at 0.1 µM values are given for each entry in this list.
Number only, in %; omit the unit.

input: State, in one line, measured inhibition at 0.1 µM of O=C(NCCNCc1cc2cccc(F)c2o1)C12CC3CC(CC(C3)C1)C2
output: 95

input: # return recorded inhibition at 0.1 µM for entry COc1cccc2cc(CNCCNC(=O)c3ccc(F)cc3)oc12
output: 87

input: Supply recorded inhibition at 0.1 µM for COc1cccc2cc(CNCCN3C(=O)CC4(CCCC4)CC3=O)oc12 here.
output: 61

input: Entry COc1cccc2cc(CNCCNC(=O)C34CCC(CC3=O)C4(C)C)oc12 (single isomer, unassigned) needs its inhibition at 0.1 µM filled in; supply it.
output: 87

input: Please supply the value of reported inhibition at 0.1 µM for the item COc1cccc2cc(CNCCNC(=O)C3(C)CCCCC3)oc12
output: 92

---

- measured_target: serotonin 5-HT1A receptor (Rattus norvegicus)
- Sequence (P19327 1-422): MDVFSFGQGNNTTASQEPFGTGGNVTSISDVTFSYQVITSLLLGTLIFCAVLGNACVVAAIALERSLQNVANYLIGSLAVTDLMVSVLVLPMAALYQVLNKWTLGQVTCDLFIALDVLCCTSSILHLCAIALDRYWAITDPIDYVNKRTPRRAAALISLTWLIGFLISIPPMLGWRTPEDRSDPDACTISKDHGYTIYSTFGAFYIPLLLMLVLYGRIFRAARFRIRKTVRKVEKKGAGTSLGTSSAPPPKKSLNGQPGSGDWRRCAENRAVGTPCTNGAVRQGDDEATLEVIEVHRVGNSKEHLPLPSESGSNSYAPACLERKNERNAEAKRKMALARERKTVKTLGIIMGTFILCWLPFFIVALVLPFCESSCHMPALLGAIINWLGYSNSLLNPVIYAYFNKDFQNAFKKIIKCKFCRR
reported_metric: IC50 (nM)
Note: unit nM is implicit; provide only the numeric part.

input: Name the recorded IC50 of COc1cccc2cc(CN(C)CCNC(=O)C34CC5CC(CC(C5)C3)C4)oc12 [Example 10] , assay system serotonin 5-HT1A receptor (Rattus norvegicus).
output: 9

---

- measured_target: serotonin 5-HT1A receptor (Rattus norvegicus)
- Construct: following the procedure of Hall et al., J. Neurochem; 44, 1685 (1985); from tissue
- test_method_notes: 5-HT1A binding, displacement of [3H] 8-OHDPAT
Categorized via inhibition at 0.1 µM: low value: < 60%; medium value: ≥ 60% and < 90%; high value: ≥ 90%

Would you please look over these solved cases?
1. COc1cccc2cc(CNCCN3C(=O)C4C5C=CC(C6C=CC65)C4C3=O)oc12 (centres unmarked) [Example 1]; low value
2. COc1cccc2cc(CNCCNC(=O)C34CC5CC(CC3C5)C4)oc12 [Example 7]; high value
3. COc1cccc2cc(CNCCNC(=O)C34CC5CC(CC(C5)C3)C4)oc12 [Example 2]; high value
4. O=C(NCCNCc1cc2cc(O)ccc2o1)C12CC3CC(CC(C3)C1)C2 [Example 15]; medium value

input: Tag the class for O=C(NCCNCc1cc2cccc(Cl)c2o1)C12CC3CC(CC(C3)C1)C2 [Example 16]
output: high value

input: Into which category would you place COc1ccc2cc(CNCCNC(=O)C34CC5CC(CC(C5)C3)C4)oc2c1OC [Example 9] ?
output: medium value

input: Bin this entry: COc1cccc2cc(CNCCNC(=O)C(C)(C)C)oc12 [Example 11]
output: low value

input: Determine which band this molecule sits in: O=C(NCCNCc1cc2ccc(OCc3ccccc3)cc2o1)C12CC3CC(CC(C3)C1)C2 [Example 12]
output: low value

---

- measured_target: serotonin 5-HT1A receptor (Rattus norvegicus, UniProt P19327)
- Construct: following the procedure of Hall et al., J. Neurochem; 44, 1685 (1985); from tissue
- test_method_notes: 5-HT1A binding, displacement of [3H] 8-OHDPAT
- Description: High affinity for the serotonin 5-HT1A receptor was established by testing the claimed compound's ability to displace [^3 H] 8-OHDPAT (dipropylaminotetralin) from the 5-HT1A serotonin receptor following the procedure of Hall et al., J. Neurochem. 44, 1685 (1985). […] The anxiolytic activity of buspirone is believed to be, at least partially, due to its 5-HT1A receptor affinity (Vander Maclen et al., Eur. J. Pharmacol. 1986, 129 (1-2) 133-130).
reported_metric: inhibition at 0.1 µM (%)
Quick note: give the figure in %, leave out the unit.

Some solved cases for reference:
1) COc1cccc2cc(CN(C)CCNC(=O)C34CC5CC(CC(C5)C3)C4)oc12; 90
2) COc1cccc2cc(CNCCN3C(=O)C4CC(C3=O)C3C4C4C5CC6C4C6C53)oc12 (stereo not drawn); 59

input: Retrieve inhibition at 0.1 µM measured for O=C(NCCNCc1cc2ccc(O)cc2o1)C12CC3CC(CC(C3)C1)C2 and print it.
output: 88
